# Assay Details: chemical genetic growth profiling, strain panel (AID 1159580);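 also: tested at 20 µM; growth read once vehicle control cultures reached saturation at 30 °C; 1 = growth at the plate median or of vehicle wells; lower values mean less growth of the strain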
# Condition Set: S. cerevisiae deletion strains, growth OD, locus YLR384C, strain iki3, active compounds read low
Screen size: about 5,500 compounds; about 2,000 (36%) were called active. Another 18% or so got no clear call; they are omitted. This is one part of the list.
Labelling: normalized growth reported below 1 becomes 1.0; at or above becomes 0.0.

Record excerpt, results attached:
compound="CCCCC(=O)O[C@]1(C(=O)CO)[C@@H](C)CC2C3CCC4=CC(=O)C=C[C@]4(C)[C@@]3(F)C(O)C[C@@]21C (stereo partly specified)" assigned_category=1.0
compound="C[C@H]1O[C@@H](O[C@H]2[C@@H](O)C[C@H](O[C@H]3[C@@H](O)C[C@H](O[C@H]4CC[C@]5(C)C6CC[C@]7(C)[C@@H](C8=CC(=O)OC8)CC[C@]7(O)C6CC[C@@H]5C4)O[C@@H]3C)O[C@@H]2C)C[C@H](O)[C@@H]1O (stereo partly specified)" assigned_category=1.0

Now for another entry.
Query: is_below(normalized growth, 1) for COc1cc(O)c2c(=O)cc(-c3ccc(OC)c(-c4c(O)cc(O)c5c(=O)cc(-c6ccc(O)cc6)oc45)c3)oc2c1 ?
Response: 0.0

* * *

Hi there, I'd appreciate the recorded normalized growth for every entry that follows.
# Assay Details: chemical genetic growth profiling, strain panel (AID 1159580)
# Condition Set: S. cerevisiae deletion strains, growth OD, locus YDR226W, strain ADK1, active compounds read low
The campaign covered roughly 5,500 compounds. About 2,000 (36%) were called active. Not shown: some 18% with an inconclusive outcome. The list shows a part of the results.
Answers are plain numbers.

Go through the list and state normalized growth for each entry.
1. COC(=O)/C=C1/OC(c2ccc(OC)cc2)=CC1=O
2. Cc1cc(-c2onc(C)c2C(=O)Sc2ccccc2)no1
3. O=C(Nc1ccc(SC(F)(F)F)cc1)Nc1ccc(Oc2cccc(C(F)(F)F)c2)nc1
4. Cc1ccc(Sc2ncccc2NS(=O)(=O)c2ccc(Cl)cc2)cc1
5. O=c1cc(CSc2ccc(Cl)cc2)c2ccc(O)cc2o1
6. CC(C)/C(=N/OC(=O)c1ccc([N+](=O)[O-])cc1)c1ccccc1

Response:
0.923
0.954
0.987
0.938
0.959
0.949

* * *

# Assay Details: chemical genetic growth profiling, strain panel (AID 1159580);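 also: tested at 20 µM; growth read once vehicle control cultures reached saturation at 30 °C; 1 = growth at the plate median or of vehicle wells; lower values mean less growth of the strain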
# Condition Set: S. cerevisiae deletion strains, growth OD, locus YKL160W, strain elf1, active compounds read low
Hit rate of the full screen: of about 5,500 compounds, about 2,000 (36%) were called active. Roughly 18% stayed inconclusive and do not appear here. The list shows a part of the results.
Labelling: normalized growth reported below 1 becomes T; at or above becomes F.

Record excerpt, results attached:
molecule="CC(=O)OCC(=O)[C@@]1(O)CCC2C3C[C@H](C)C4=CC(=O)C=CC4(C)C3[C@@H](O)CC21C (stereo partly drawn)" assigned_category=F
molecule="C[C@@H](CO)NC(=O)C1C=C2c3cccc4[nH]cc(c34)C[C@H]2N(C)C1 (stereo partly drawn)" assigned_category=F
molecule=COc1ccc(-c2cc(=O)c3c(O)cc(O)cc3o2)cc1 assigned_category=T
molecule="C/C=C/CC(C)C(O)C1C(=O)NC(CC)C(=O)N(C)CC(=O)N(C)C(CC(C)C)C(=O)NC(C(C)C)C(=O)N(C)C(CC(C)C)C(=O)NC(C)C(=O)NC(C)C(=O)N(C)C(CC(C)C)C(=O)N(C)C(CC(C)C)C(=O)N(C)C(C(C)C)C(=O)N1C (stereo not drawn)" assigned_category=F
molecule="C[C@H]1O[C@H](O[C@H]2[C@H](O)[C@@H](O)[C@@H](O[C@H]3[C@H](O)[C@@H](O)C(O)O[C@@H]3CO)O[C@@H]2CO)[C@H](O)[C@@H](O)[C@@H]1N[C@H]1C=C(CO)[C@@H](O)[C@H](O)[C@H]1O (stereo partly drawn)" assigned_category=T

Now for another entry.
Query: is_below(normalized growth, 1) for O=C(CCCN1CCC2(CC1)C(=O)NCN2c1ccccc1)c1ccc(F)cc1 ?
Response: T

* * *

# Assay Details: chemical genetic growth profiling, strain panel (AID 1159580);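 also: tested at 20 µM; growth read once vehicle control cultures reached saturation at 30 °C; 1 = growth at the plate median or of vehicle wells; lower values mean less growth of the strain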
# Condition Set: S. cerevisiae deletion strains, growth OD, locus YKR001C, strain vps1, active compounds read low
About 2,000 (36%) of roughly 5,500 compounds were called active. Another 18% or so got no clear call; they are omitted. This is one part of the list.
Hi there, I'd appreciate the recorded normalized growth for every entry that follows.
One number for each entry.

Use these answered entries as a reference point.
compound=CO[C@@H]1[C@@H](OC(N)=O)[C@@H](O)[C@H](Oc2ccc3c(O)c(NC(=O)c4ccc(O)c(CC=C(C)C)c4)c(=O)oc3c2C)OC1(C)C reported=0.99
compound=COc1ccc(-c2cc(=O)c3c(O)cc(O)cc3o2)cc1 reported=0.991
compound=COc1cc(O)c2c(=O)cc(-c3ccc(O)cc3)oc2c1 reported=1.01
compound=CNC[C@H](O)c1cccc(O)c1 reported=1.02
compound="CC1CCCC(C)N1NC(=O)c1ccc(Cl)c(S(N)(=O)=O)c1 (stereo not drawn)" reported=1

Go through the list and state normalized growth for each entry.
1. NC[C@@H]1O[C@H](O[C@@H]2[C@@H](CO)OC(O[C@@H]3[C@@H](O)[C@H](N)C[C@H](N)[C@H]3O[C@H]3O[C@H](CO)[C@@H](O)[C@H](O)[C@H]3N)[C@@H]2O)[C@H](N)[C@@H](O)[C@@H]1O (stereo partly drawn)
2. CC1(C)C(O)CC(=O)C2(C)C1CC(O)C1(C)C2CCC2(C)C(c3ccoc3)OC(=O)C3OC321 (stereo not drawn)
3. NS(=O)(=O)c1cc2c(cc1C(F)(F)F)NC(Cc1ccccc1)NS2(=O)=O (stereo not drawn)
4. COC(=O)NC(=S)Nc1ccccc1NC(=S)NC(=O)OC
5. CC1(C)C(=O)CC[C@@]2(C)C1C[C@@H](O)[C@@]1(C)C3=CC(=O)O[C@@H](c4ccoc4)[C@]3(C)CCC21 (stereo partly drawn)
6. COc1ccc(-c2cc(=O)c3c(O)c(OC)c(O[C@H]4O[C@H](CO[C@@H]5O[C@@H](C)[C@H](O)[C@@H](O)[C@H]5O)[C@@H](O)[C@H](O)[C@H]4O)cc3o2)cc1

Response:
0.988
0.993
0.982
0.991
0.975
1.01

Go through the list and state normalized growth for each entry.
1. CC(=O)O[C@@H]1CC2C(C)(CC[C@H](O)C2(C)C)C2CC[C@]3(C)C(=CC(=O)O[C@H]3c3ccoc3)C21C (stereo partly drawn)
2. COc1ccccc1N1CCN(CCCNc2cc(=O)n(C)c(=O)n2C)CC1

Response:
0.978
0.982

* * *

Hi there, I'd appreciate the recorded normalized growth for every entry that follows.
# Assay Details: chemical genetic growth profiling, strain panel (AID 1159580);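 also: tested at 20 µM; growth read once vehicle control cultures reached saturation at 30 °C; 1 = growth at the plate median or of vehicle wells; lower values mean less growth of the strain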
# Condition Set: S. cerevisiae deletion strains, growth OD, locus YCL016C, strain dcc1, active compounds read low
Among all 5,500 compounds or so, about 2,000 (36%) were called active. Roughly 18% stayed inconclusive and do not appear here. Some of the results follow.
Answers are plain numbers.

compound=Oc1ccc([C@H]2Oc3cc(O)cc(O)c3C[C@H]2O)cc1 attribute_measured="normalized growth" reported=1.01

Go through the list and state normalized growth for each entry.
1. COc1ccc(-c2cc(=O)c3c(OC)c(OC)c(OC)c(OC)c3o2)cc1OC
2. NS(=O)(=O)c1cc2c(cc1C(F)(F)F)NC(Cc1ccccc1)NS2(=O)=O (stereo unspecified)
3. CC1(C)C(O)CC(=O)C2(C)C1CC(O)C1(C)C2CCC2(C)C(c3ccoc3)OC(=O)C3OC321 (stereo unspecified)

Response:
[0.993, 0.988, 1.01]

Go through the list and state normalized growth for each entry.
1. CC(C)c1cccc(O)c(=O)c1
2. COC(=O)CC1C(C)(C)C(OC(C)=O)[C@@H]2[C@@H](OC(C)=O)[C@]34O[C@@]2(O)[C@]1(C)C3CC[C@]1(C)C4=CC(=O)O[C@H]1c1ccoc1 (stereo partly specified)
3. Cc1ccc(-c2nc3ccc(C)cn3c2CC(=O)N(C)C)cc1
4. CCCc1nn(C)c2c(=O)[nH]c(-c3cc(S(=O)(=O)N4CCN(C)CC4)ccc3OCC)nc12

Response:
1: 0.0739; 2: 1.02; 3: 0.987; 4: 0.994

Go through the list and state normalized growth for each entry.
1. O=C(CCCN1CCN(c2ccccn2)CC1)c1ccc(F)cc1
2. CC(C)C[C@@H](NC(=O)OCC1c2ccccc2-c2ccccc21)C(=O)O
3. CC(C)=CC1C(CO)C1(C)C (stereo unspecified)
4. COc1cccc2c1CCC1=CC(=O)CC[C@@]12C
5. O=S(=O)(O)O

Response:
1. 0.95
2. 0.983
3. 1.02
4. 0.999
5. 0.981

Go through the list and state normalized growth for each entry.
1. CCCc1nc(C)c2c(=O)[nH]c(-c3cc(S(=O)(=O)N4CCN(CC)CC4)ccc3OCC)nn12
2. C[C@H]1O[C@@H](O[C@H]2[C@@H](O)C[C@H](O[C@H]3[C@@H](O)C[C@H](O[C@H]4CC[C@]5(C)C6CC[C@]7(C)[C@@H](C8=CC(=O)OC8)CC[C@]7(O)C6CC[C@@H]5C4)O[C@@H]3C)O[C@@H]2C)C[C@H](O)[C@@H]1O (stereo partly specified)
3. CC(C)Nc1nc(Cl)nc(NC(C)C)n1
4. CC(=O)OC1CC[C@@]2(C)C(CCC3C2CC[C@]2(C)C(C4=CC(=O)OC4)C(OC(C)=O)CC32O)C1 (stereo partly specified)
5. NC[C@@H]1O[C@H](O[C@@H]2[C@@H](CO)OC(O[C@@H]3[C@@H](O)[C@H](N)C[C@H](N)[C@H]3O[C@H]3O[C@H](CO)[C@@H](O)[C@H](O)[C@H]3N)[C@@H]2O)[C@H](N)[C@@H](O)[C@@H]1O (stereo partly specified)
6. Cc1c(OCC(F)(F)F)ccnc1CS(=O)c1nc2ccccc2[nH]1 (stereo unspecified)
7. O=C(CCCN1CCC(O)(c2ccc(Cl)cc2)CC1)c1ccc(F)cc1

Response:
[0.974, 0.921, 1, 0.971, 0.988, 1.01, 0.902]
